Reported TGI values follow for various compounds
# Test system: SNB-75 CNS
# Experiment notes: NCI tumour cell line growth inhibition, 48 h
Readout: TGI (µM)

| Compound | Bound type | Numeric readout |
| --- | --- | --- |
| C(=C\c1ccco1)/c1cccc(/C=C/c2ccco2)n1 | = | 33.1 |
| C[C@@H]1CC[C@@H]2[C@@H](C1)O[C@@H]([C@H](C)OCc1ccccc1)SC2(C)C | = | 49.2 |
| Cc1cc(C)cc(NC(N)=S)c1 | > | 100 |
| N#CC1CCCCCCCCCCC(=O)N(CCCl)C1=O (centres undefined) | > | 100 |

* * *

The following compounds are shown together with reported TGI values.
# Test system: KM12 colon
# Experiment notes: NCI tumour cell line growth inhibition, 48 h

| Compound | TGI |
| --- | --- |
| O=C1c2ccccc2S(=O)(=O)c2cc(-c3nn[nH]n3)ccc21 | > 100 µM |
| CC(C)(C)c1cc(O)ccc1O | > 100 µM |
| COC(=O)C(CCSC)NC(=O)Cc1ccc(C(=O)c2ccccc2)cc1 (centres undefined) | > 100 µM |
| CC(C)=CC1=C2C3=C(C(=O)C4(O)Oc5c(C)c6c7c(c5OC24C)[C@@H](C)CC[C@@H]7[C@@H](C)C[C@H]6C=C(C)C)C(C)CCC3C(C)C1 (some centres undefined) | > 100 µM |

* * *

// TGI lookup, one value per entry
# System: ACHN renal
# Experiment notes: NCI tumour cell line growth inhibition, 48 h

| Molecule | Unit string | Bound type | TGI |
| --- | --- | --- | --- |
| CC(=O)Nc1ccc(C2SCc3nc4ccccc4n32)cc1 (stereo not given) | µM | > | 100 |
| N#Cc1c(N)nc(Sc2ccccc2N)c(C#N)c1-c1ccc(Cl)cc1 | µM | = | 39.5 |
| Cc1cnc(C(=O)NNc2nc3sc4c(c3c(=O)n2C)C(C)CCC4)cn1 (stereo not given) | µM | = | 2.02 |
| O=C1C(=O)c2cccnc2-c2ncccc21 | µM | = | 0.318 |
| CCCC(=O)OC1C(CO)OC(n2cc(F)c(=O)[nH]c2=O)C1F (stereo not given) | µM | > | 100 |

* * *

# Tested on: IGROV1 ovarian
# Experiment notes: NCI tumour cell line growth inhibition, 48 h
Readout: TGI

| Molecule | Result |
| --- | --- |
| O=C(OC[C@H]1O[C@H](OC(=O)c2cc(O)c(O)c(OC(=O)c3cc(O)c(O)c(O)c3)c2)[C@H](OC(=O)c2cc(O)c(O)c(OC(=O)c3cc(O)c(O)c(O)c3)c2)[C@@H](OC(=O)c2cc(O)c(O)c(OC(=O)c3cc(O)c(O)c(O)c3)c2)[C@@H]1OC(=O)c1cc(O)c(O)c(OC(=O)c2cc(O)c(O)c(O)c2)c1)c1cc(O)c(O)c(OC(=O)c2cc(O)c(O)c(O)c2)c1 | > 25 µM |
| O=c1c(-c2ccccc2)coc2cc(OC/C(=N/O)c3ccccc3)ccc12 | > 100 µM |
| COc1cc(C(O)(CC#N)c2cc3c(cc2Br)OCO3)cc(OC)c1OC (centres undefined) | > 100 µM |
| CC(C)OP(=O)(NC(=S)c1ccccc1)OC(C)C | > 100 µM |

* * *

Collected TGI values appear next to each entry.
# Test system: U251 CNS
# Experiment notes: NCI tumour cell line growth inhibition, 48 h

| Molecule | Bound type | TGI (µM) |
| --- | --- | --- |
| N#Cc1ccc(-n2c3ccccc3c3ccc4c(c32)C(=O)C=CC4=O)cc1 | = | 17.8 |
| O=C1c2ccccc2C(=O)N1CC(O)COc1cccc2ccccc12 (stereo unspecified) | > | 100 |
| CN(C)CC/[N+]([O-])=C(/c1ccccc1)C12CC3CC(CC(C3)C1)C2 | = | 29.7 |
| COc1cc(CNNC(N)=S)cc(OC)c1OC | > | 100 |
| Cc1ccnc(NC(NC(=O)c2ccccc2)(C(F)(F)F)C(F)(F)F)c1 | > | 100 |
| O=C(NC12CC3CC(CC(C3)C1)C2)C(=O)c1c[nH]c2ccccc12 | = | 26.7 |
| CCCCCCCCCCCCCCCCCCN(C)CC(COP(=O)([O-])OCC[N+](C)(C)C)OC (stereo unspecified) | = | 10.1 |
| COC(=O)CC[C@H](Cc1ccccc1)NC(=O)c1csc([C@@H](C[C@H](C(C)C)N(C)C(=O)[C@@H](NC(=O)[C@H]2CCCCN2C)C(C)C)OC(C)=O)n1 | > | 25 |
| C=C(c1ccccc1)[C@@]1(O)CC[C@@H]1N(CC#N)Cc1ccccc1 | > | 100 |
| C#CCOc1cccc(Nc2ncnc3cc(NC(=O)CCl)ccc23)c1 | = | 4.78 |
| O=C(NCCCCCCNC(=O)c1cc(-c2ccccc2)nc2ccccc12)c1cc(-c2ccccc2)nc2ccccc12 | > | 100 |
| O=C(Nc1nc(C23CC4CC(CC(C4)C2)C3)cs1)c1cc2ccccc2oc1=O | > | 100 |
| NC(N)=NS(=O)(=O)c1ccc(NCCc2c3ccccc3nc3ccccc23)cc1 | > | 100 |
| CO/N=C(\C)c1cccc(Nc2c3ccccc3nc3occc23)c1 | = | 38.6 |
| COC(=O)C(CCSC)NC(=O)Cc1ccc(C(=O)c2ccccc2)cc1 (stereo unspecified) | > | 100 |
| NC(=S)N/N=C\c1nccc2ccccc12 | > | 58.6 |
| CCCSS[C@H]1NC(=O)[C@H]1NC(=O)COc1ccccc1 | = | 31.8 |
| CC(=O)OCc1ccc2oc(=O)c(C(=O)Oc3ccccc3)cc2c1 | > | 100 |
| Cc1cnc(C(=O)Nc2nc3ccc(S(=O)(=O)Nc4ccc(C5(C(F)(F)F)CC5)cc4)cc3[nH]2)cn1 | = | 5.4 |
| Cc1ccc(O)c(NC(=O)c2ccc(CNc3ccnc(C(F)(F)F)c3)cc2)c1 | > | 100 |
| Clc1ccc(C(n2cc(Br)cn2)n2cc(Br)cn2)cc1 | = | 30.8 |
| Cc1ncc(C(=O)Nc2ccc(CN3CCN(C)CC3)c(C(F)(F)F)c2)cc1C#Cc1cnc(N)cc1C#N | = | 4.02 |
| Cc1cc(Cl)ccc1NC(=O)CC1SC(=Nc2ccccc2Cl)NC1=O (stereo unspecified) | > | 100 |
| CC(=O)O[C@H]1C(=O)[C@@]2(C)C(C(OC(=O)c3ccccc3)C3[C@@H](O)C(OC(=O)[C@@H](O)[C@H](NC(=O)c4ccccc4)c4ccc(C(F)(F)F)cc4)C(C)=C1C3(C)C)[C@]1(OC(C)=O)CO[C@@H]1C[C@@H]2O (stereo partly specified) | > | 25 |
| CCCCCCCc1cc2c3c(nc4ccccc42)C(=O)c2cccnc2-c3n1 | = | 8.05 |
| Cc1cc(S(=O)(=O)Nc2nc3ccccc3c(=O)n2N)c(S)cc1Cl | > | 100 |

* * *

# System: M19-MEL melanoma
# Experiment notes: NCI tumour cell line growth inhibition, 48 h
Listed below: TGI values for each entry.
Readout: TGI

| Compound string | Result |
| --- | --- |
| CN(C)c1ccc(/C=c2\sc3nc4ccccc4n3c2=O)cc1 | > 100 µM |
| O=C(O)CCc1nn2c(nc1=O)sc1ccc3ccccc3c12 | > 100 µM |
| Cc1cc2c(C)nn(Cc3ccc(Cl)cc3)c2c(C#N)c1C | > 100 µM |

* * *

# Tested on: CCRF-CEM leukemia
# Experiment notes: NCI tumour cell line growth inhibition, 48 h

| Compound | Bound type | TGI (µM) |
| --- | --- | --- |
| CCN(CC)c1ccc(C(=O)c2ccc(N(CC)CC)cc2)cc1 | > | 100 |
| CCCCCCCCCCCCCCCCCCN(C)CC(COP(=O)([O-])OCC[N+](C)(C)C)OC (centres undefined) | = | 24.3 |
| Cc1cnc(C(=O)Nc2nc3ccc(S(=O)(=O)Nc4ccc(C5(C(F)(F)F)CC5)cc4)cc3[nH]2)cn1 | = | 22.8 |
| OCCNCNc1nc(NCNCCO)nc(N(CNCCO)CNCCO)n1 | > | 69.7 |

* * *

# Tested on: HOP-62 NSCLC
# Experiment notes: NCI tumour cell line growth inhibition, 48 h
Readout: TGI

| Compound | Readout | Result |
| --- | --- | --- |
| CC(C)/C(Cl)=N\OC(=O)Nc1cccc(Cl)c1 | TGI | > 86.1 µM |
| O=Cc1c(O)c(C(=O)Nc2ccc3[nH]c(=O)[nH]c3c2)cc2ccccc12 | TGI | > 100 µM |
| CCC(=O)Nc1ccc(N2C(=O)C(Cl)C2c2ccc(SC)cc2)cc1 (stereo not given) | TGI | > 100 µM |
| Cn1cc(-c2ccc(-c3ccc(C4=NC5(CC5)C(=O)N4C[C@@H]4CCN(C(=O)C5CC5)C4)cc3)cc2)cn1 | TGI | > 100 µM |
| O=C(c1ccccc1)c1cn(/N=C\c2ccccc2)c(=O)nc1-c1ccccc1 | TGI | > 100 µM |
